List of pKi tested on Somatostatin receptor type 2 (Homo sapiens).
Sequence (P30874 whole entry): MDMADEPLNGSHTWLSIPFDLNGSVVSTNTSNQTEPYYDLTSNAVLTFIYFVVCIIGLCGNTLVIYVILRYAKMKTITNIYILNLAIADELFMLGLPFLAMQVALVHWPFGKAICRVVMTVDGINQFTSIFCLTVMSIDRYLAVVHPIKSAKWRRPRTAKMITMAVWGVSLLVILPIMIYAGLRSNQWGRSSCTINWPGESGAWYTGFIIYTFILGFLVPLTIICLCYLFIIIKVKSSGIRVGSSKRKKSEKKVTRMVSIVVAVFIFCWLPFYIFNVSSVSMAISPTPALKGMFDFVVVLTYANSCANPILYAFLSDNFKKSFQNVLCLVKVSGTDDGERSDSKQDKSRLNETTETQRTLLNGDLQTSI
Scale note: pKi = -log10(concentration in M).

input: Query: pKi; subject: NC(=N[C@H](Cc1c[nH]c2ccccc12)c1nc(-c2ccccc2)c[nH]1)c1ccc(Cl)cc1
output: 5.46

input: Query: pKi; subject: N=C(N[C@H](Cc1c[nH]c2ccccc12)c1nc(-c2ccccc2)c[nH]1)c1ccccc1
output: 5.06

input: Query: pKi; subject: N=C(N[C@H](Cc1c[nH]c2ccccc12)c1nc(-c2ccccc2)c[nH]1)c1ccc(OC(F)(F)F)cc1
output: 5.37

###

# pKi per record follows
test target: Somatostatin receptor type 3 (Homo sapiens)
Sequence (P32745 whole entry): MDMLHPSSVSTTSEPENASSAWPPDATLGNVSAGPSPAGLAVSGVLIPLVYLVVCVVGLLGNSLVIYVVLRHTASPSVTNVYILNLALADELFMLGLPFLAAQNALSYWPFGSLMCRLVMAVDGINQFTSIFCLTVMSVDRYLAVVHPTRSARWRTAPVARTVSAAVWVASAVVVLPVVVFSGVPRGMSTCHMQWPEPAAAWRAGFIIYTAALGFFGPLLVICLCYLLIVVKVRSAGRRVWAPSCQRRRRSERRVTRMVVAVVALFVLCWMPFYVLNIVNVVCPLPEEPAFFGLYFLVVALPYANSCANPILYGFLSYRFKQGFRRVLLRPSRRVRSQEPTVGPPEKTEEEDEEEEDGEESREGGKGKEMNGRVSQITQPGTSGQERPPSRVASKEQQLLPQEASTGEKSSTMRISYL
Scale note: pKi = -log10(concentration in M).

These recorded examples may help you get a feel for the data.
- entry smiles: "N=C(N[C@H](Cc1c[nH]c2ccccc12)c1nc(-c2ccccc2)c[nH]1)c1ccccc1"
  pKi: 6.60
- entry smiles: "NC(=N[C@H](Cc1c[nH]c2ccccc12)c1nc(-c2ccccc2)c[nH]1)c1ccc(C(F)(F)F)cc1"
  pKi: 6.30

input: Short answer please: pKi, Somatostatin receptor type 3 (Homo sapiens), entry CC(C)(C)OC(=O)N[C@H](Cc1c[nH]c2ccccc12)c1nc(-c2ccccc2)c[nH]1
output: 6.68

input: Short answer please: pKi, Somatostatin receptor type 3 (Homo sapiens), entry COc1ccc(C(=N)N[C@H](Cc2c[nH]c3ccccc23)c2nc(-c3ccccc3)c[nH]2)cc1
output: 7.44

input: Short answer please: pKi, Somatostatin receptor type 3 (Homo sapiens), entry CC(=N)N[C@H](Cc1c[nH]c2ccccc12)c1nc(-c2ccccc2)c[nH]1
output: 6.15
